Below, each entry is listed alongside its reported viability, T/C.
System: 935938-334-R-J1-PDC complex spheroid viability
Assay: Anticancer human tumor 935938-334-R-J1-PDC patient-derived small intestine adenocarcinoma cell line growth inhibition [POLQ]
Conditions: second compound 0.316 µM; first compound 0.316 µM; active compounds read low
// units = %; emit number, no label

As a guide, the following entries are already answered.
1. CC1COCCN1c1cc(C2(S(C)(=N)=O)CC2)nc(-c2ccnc3[nH]ccc23)n1 (stereo unspecified) + Cc1cccc(N(C)C(=O)C2C(O)CCN2c2nc(C)cc(C(F)(F)F)c2C#N)c1: 69.1
2. CCc1cc2c(N3CCc4c(cc(Cn5ccnc5)cc4-c4cn(C)nc4C(F)(F)F)C3=O)ccnc2c(OC)n1 + Cc1cccc(N(C)C(=O)C2C(O)CCN2c2nc(C)cc(C(F)(F)F)c2C#N)c1: 64.2

-- ask Return reported viability, T/C; argument: COc1cccc(OCCCN)c1-c1cc(Nc2cnc(C#N)cn2)n[nH]1 + Nc1ccc(C#CCN(C(=O)Cc2ncc(C(F)(F)F)cc2C(F)(F)F)c2ccc(F)cc2)nn1
-- reply 8.42

-- ask Return reported viability, T/C; argument: CCCS(=O)(=O)Nc1ccc(F)c(C(=O)c2c[nH]c3ncc(-c4ccc(Cl)cc4)cc23)c1F + Nc1ccc(C#CCN(C(=O)Cc2ncc(C(F)(F)F)cc2C(F)(F)F)c2ccc(F)cc2)nn1
-- reply 90.9

-- ask Return reported viability, T/C; argument: CC(C)n1c(=O)n(C)c2cnc3cc(F)c(-c4ccc(OCCCN5CCCCC5)nc4)cc3c21 + Cc1cccc(N(C)C(=O)C2C(O)CCN2c2nc(C)cc(C(F)(F)F)c2C#N)c1
-- reply 100

-- ask Return reported viability, T/C; argument: COc1ccc([C@@H](O)c2cc(-c3ncnc4cc(N5CCOCC5)ccc34)c(F)cc2Cl)nn1 + Cc1cccc(N(C)C(=O)C2C(O)CCN2c2nc(C)cc(C(F)(F)F)c2C#N)c1
-- reply 97.6

-- ask Return reported viability, T/C; argument: O=c1[nH]cc(F)c(=O)[nH]1 + Cc1cccc(N(C)C(=O)C2C(O)CCN2c2nc(C)cc(C(F)(F)F)c2C#N)c1
-- reply 124

-- ask Return reported viability, T/C; argument: COc1cc2cc(C(=O)CCC(=O)O)sc2cc1OC + Cc1cccc(N(C)C(=O)C2C(O)CCN2c2nc(C)cc(C(F)(F)F)c2C#N)c1
-- reply 68.3

-- ask Return reported viability, T/C; argument: COc1cc(C2c3cc4c(cc3C(OC3OC5COC(C)OC5C(O)C3O)C3COC(=O)C23)OCO4)cc(OC)c1O (stereo unspecified) + COC1C(OC(N)=O)C(O)C(Oc2ccc3c(O)c(NC(=O)c4ccc(O)c(CC=C(C)C)c4)c(=O)oc3c2C)OC1(C)C
-- reply 80.4

-- ask Return reported viability, T/C; argument: CC1COCCN1c1cc(C2(O)CC3CCC(C2)O3)c2cnn(-c3ccn[nH]3)c2n1 (stereo unspecified) + COC1C(OC(N)=O)C(O)C(Oc2ccc3c(O)c(NC(=O)c4ccc(O)c(CC=C(C)C)c4)c(=O)oc3c2C)OC1(C)C
-- reply 30.4

-- ask Return reported viability, T/C; argument: CCc1c2c(nc3ccc(O)cc13)-c1cc3c(c(=O)n1C2)COC(=O)[C@]3(O)CC + Cc1cccc(N(C)C(=O)C2C(O)CCN2c2nc(C)cc(C(F)(F)F)c2C#N)c1
-- reply 38.3

###

Below, each entry is listed alongside its reported viability, T/C.
Tested on: 935938-334-R-J1-PDC complex spheroid viability
Assay: Anticancer human tumor 935938-334-R-J1-PDC cell line growth inhibition [POLQ];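 note: spheroids exposed to drugs for seven days before viability read; 100% = DMSO vehicle control wells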
Details: second compound 10 µM; first compound 10 µM; active compounds read low
// units = %; emit number, no label

As a guide, the following entries are already answered.
1) C=CC(=O)N1CCN(c2nc(=O)n(-c3c(C)ccnc3C(C)C)c3nc(-c4c(O)cccc4F)c(F)cc23)C(C)C1 (stereo not given) + COC1C(OC(N)=O)C(O)C(Oc2ccc3c(O)c(NC(=O)c4ccc(O)c(CC=C(C)C)c4)c(=O)oc3c2C)OC1(C)C: 118
2) CC1COCCN1c1cc(C2(O)CC3CCC(C2)O3)c2cnn(-c3ccn[nH]3)c2n1 (stereo not given) + COC1C(OC(N)=O)C(O)C(Oc2ccc3c(O)c(NC(=O)c4ccc(O)c(CC=C(C)C)c4)c(=O)oc3c2C)OC1(C)C: 8.92
3) CC1COCCN1c1cc(C2(O)CC3CCC(C2)O3)c2cnn(-c3ccn[nH]3)c2n1 (stereo not given) + Cc1cccc(N(C)C(=O)C2C(O)CCN2c2nc(C)cc(C(F)(F)F)c2C#N)c1: 9.31
4) Nc1ccn(C2OC(CO)C(O)C2(F)F)c(=O)n1 (stereo not given) + COC1C(OC(N)=O)C(O)C(Oc2ccc3c(O)c(NC(=O)c4ccc(O)c(CC=C(C)C)c4)c(=O)oc3c2C)OC1(C)C: 17.9
5) CC1COCCN1c1cc(-c2ccnn2C)c2ccnc(-c3ccn[nH]3)c2n1 (stereo not given) + Cc1cccc(N(C)C(=O)C2C(O)CCN2c2nc(C)cc(C(F)(F)F)c2C#N)c1: 22.8

-- ask Tell me reported viability, T/C for CCc1cc2c(N3CCc4c(cc(Cn5ccnc5)cc4-c4cn(C)nc4C(F)(F)F)C3=O)cc(C)nc2c(OC)n1 + Nc1ccc(C#CCN(C(=O)Cc2ncc(C(F)(F)F)cc2C(F)(F)F)c2ccc(F)cc2)nn1 , tested with 935938-334-R-J1-PDC complex spheroid viability.
-- reply 61.1

-- ask Tell me reported viability, T/C for COc1cc(C2c3cc4c(cc3C(OC3OC5COC(C)OC5C(O)C3O)C3COC(=O)C23)OCO4)cc(OC)c1O (stereo not given) + Cc1cccc(N(C)C(=O)C2C(O)CCN2c2nc(C)cc(C(F)(F)F)c2C#N)c1 , tested with 935938-334-R-J1-PDC complex spheroid viability.
-- reply 33.1

-- ask Tell me reported viability, T/C for O=C(Nc1ccc(O)c(NS(=O)(=O)c2ccc(F)cc2)c1)c1ccc(-c2ccccc2)cc1 + COC1C(OC(N)=O)C(O)C(Oc2ccc3c(O)c(NC(=O)c4ccc(O)c(CC=C(C)C)c4)c(=O)oc3c2C)OC1(C)C , tested with 935938-334-R-J1-PDC complex spheroid viability.
-- reply 67.6

-- ask Tell me reported viability, T/C for O=c1[nH]cc(F)c(=O)[nH]1 + Nc1ccc(C#CCN(C(=O)Cc2ncc(C(F)(F)F)cc2C(F)(F)F)c2ccc(F)cc2)nn1 , tested with 935938-334-R-J1-PDC complex spheroid viability.
-- reply 56.7

-- ask Tell me reported viability, T/C for COc1ccc([C@@H](O)c2cc(-c3ncnc4cc(N5CCOCC5)ccc34)c(F)cc2Cl)nn1 + COC1C(OC(N)=O)C(O)C(Oc2ccc3c(O)c(NC(=O)c4ccc(O)c(CC=C(C)C)c4)c(=O)oc3c2C)OC1(C)C , tested with 935938-334-R-J1-PDC complex spheroid viability.
-- reply 34.8

###

Test system: 935938-334-R-J1-PDC complex spheroid viability
Assay: Anticancer human tumor 935938-334-R-J1-PDC cell line growth inhibition [POLQ];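 note: spheroids exposed to drugs for seven days before viability read; 100% = DMSO vehicle control wells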
Details: second compound 0.1 µM; first compound 0.316 µM; active compounds read low
Procedure: Multicellular complex tumor spheroid response to Polymerase (POL) inhibitors (novobiocin, ART-558, RP6685) in combination with a variety of drugs and investigational agents in selected tumor cell lines The POL inhibitors (novobiocin, ART-558, and RP6685) were evaluated both individually and in combination with standard of care and investigational anticancer small molecules within a complex spheroid model of solid tumors. . […]
assay.metric: viability, T/C (%)
// units = %; emit number, no label

1) CC1COCCN1c1cc(C2(S(C)(=N)=O)CC2)nc(-c2ccnc3[nH]ccc23)n1 (stereo not drawn) + Nc1ccc(C#CCN(C(=O)Cc2ncc(C(F)(F)F)cc2C(F)(F)F)c2ccc(F)cc2)nn1: 91.8
2) O=C(c1cc(Cc2n[nH]c(=O)c3ccccc23)ccc1F)N1CCN(C(=O)C2CC2)CC1 + Nc1ccc(C#CCN(C(=O)Cc2ncc(C(F)(F)F)cc2C(F)(F)F)c2ccc(F)cc2)nn1: 105

Consider the record given below.
-- ask Return reported viability, T/C; argument: COc1cc2cc(C(=O)CCC(=O)O)sc2cc1OC + Cc1cccc(N(C)C(=O)C2C(O)CCN2c2nc(C)cc(C(F)(F)F)c2C#N)c1
-- reply 92.4

###

System: 935938-334-R-J1-PDC complex spheroid viability
Assay: Anticancer human tumor 935938-334-R-J1-PDC cell line growth inhibition [POLQ];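 note: spheroids exposed to drugs for seven days before viability read; 100% = DMSO vehicle control wells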
Conditions: second compound 0.0316 µM; first compound 0.01 µM; active compounds read low
Classify: Met when viability, T/C is strictly less than 90%; Not met when viability, T/C is not.

These recorded examples may help you get a feel for the data.
1. Cn1ncnc1[C@H]1c2n[nH]c(=O)c3cc(F)cc(c23)N[C@@H]1c1ccc(F)cc1 + COC1C(OC(N)=O)C(O)C(Oc2ccc3c(O)c(NC(=O)c4ccc(O)c(CC=C(C)C)c4)c(=O)oc3c2C)OC1(C)C: Met
2. C=CCn1c(=O)c2cnc(Nc3ccc(N4CCN(C)CC4)cc3)nc2n1-c1cccc(C(C)(C)O)n1 + Cc1cccc(N(C)C(=O)C2C(O)CCN2c2nc(C)cc(C(F)(F)F)c2C#N)c1: Met
3. CCc1c2c(nc3ccc(O)cc13)-c1cc3c(c(=O)n1C2)COC(=O)[C@]3(O)CC + COC1C(OC(N)=O)C(O)C(Oc2ccc3c(O)c(NC(=O)c4ccc(O)c(CC=C(C)C)c4)c(=O)oc3c2C)OC1(C)C: Met

Continue with the next compound.
-- ask Given the entry COc1cccc(OCCCN)c1-c1cc(Nc2cnc(C#N)cn2)n[nH]1 + Nc1ccc(C#CCN(C(=O)Cc2ncc(C(F)(F)F)cc2C(F)(F)F)c2ccc(F)cc2)nn1 , would its reported viability, T/C be below 90%?
-- reply Not met
